organism: Rattus norvegicus; assay: Open TG-GATES - Regimen: Daily Repeat; format: toxicity, organism-based, Sprague-Dawley; set-up: regimen Daily Repeat, gender Male, age 6 weeks; conditions: in vivo, po, 0 mg/kg, […], tissue Plasma, route gavage, dose level Control, time 7 day
measurementKind: BUN (mg/dL)

[[record]]
molecule = "NC(N)=Nc1nc(CSCCC(N)=NS(N)(=O)=O)cs1 [FAMOTIDINE]"
measurementkind = "BUN"
observedresult = 16.6

[[record]]
molecule = "CC1=C(/C=C/C(C)=C/C=C/C(C)=C/CO)C(C)(C)CCC1 [RETINOL]"
measurementkind = "BUN"
observedresult = 17.4

[[record]]
molecule = "CCCNC(=O)NS(=O)(=O)c1ccc(Cl)cc1 [CHLORPROPAMIDE]"
measurementkind = "BUN"
observedresult = 15.4

